Hey, just so you know, these numbers are from BindingDB's records for doi:10.1021/jm0504499.

tested_target: Metabotropic glutamate receptor 2 (Rattus norvegicus) (UniProt P31421)
Sequence (P31421 whole entry, looked up): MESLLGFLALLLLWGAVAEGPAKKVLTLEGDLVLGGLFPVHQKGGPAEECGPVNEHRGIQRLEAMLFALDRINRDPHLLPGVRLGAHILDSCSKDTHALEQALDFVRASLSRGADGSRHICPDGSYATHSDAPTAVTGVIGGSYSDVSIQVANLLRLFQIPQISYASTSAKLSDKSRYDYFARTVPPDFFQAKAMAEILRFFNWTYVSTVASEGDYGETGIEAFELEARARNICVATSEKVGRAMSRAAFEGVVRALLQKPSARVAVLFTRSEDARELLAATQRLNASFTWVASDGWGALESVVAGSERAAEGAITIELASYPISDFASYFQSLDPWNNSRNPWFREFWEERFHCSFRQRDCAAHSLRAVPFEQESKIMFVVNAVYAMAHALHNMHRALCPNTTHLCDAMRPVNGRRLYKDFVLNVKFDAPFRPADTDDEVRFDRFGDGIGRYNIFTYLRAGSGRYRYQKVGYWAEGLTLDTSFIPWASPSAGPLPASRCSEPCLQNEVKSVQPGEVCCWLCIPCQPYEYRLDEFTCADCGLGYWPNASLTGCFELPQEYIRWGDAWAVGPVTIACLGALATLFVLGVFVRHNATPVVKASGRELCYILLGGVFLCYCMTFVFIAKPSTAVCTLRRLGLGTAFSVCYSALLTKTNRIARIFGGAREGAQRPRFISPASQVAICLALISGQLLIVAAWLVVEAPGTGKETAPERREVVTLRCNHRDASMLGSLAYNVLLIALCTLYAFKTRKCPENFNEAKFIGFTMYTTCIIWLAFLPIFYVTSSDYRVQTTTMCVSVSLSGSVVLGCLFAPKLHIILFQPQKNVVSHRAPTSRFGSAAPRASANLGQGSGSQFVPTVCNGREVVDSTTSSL
procedure_text: Effective concentration against mGluR2 receptor expressed in CHO cells
measured_parameter: EC50

smiles_record: N[C@@H](C[C@H]1CC(C(=O)O)=NO1)C(=O)O
tested_target: Metabotropic glutamate receptor 2 (Rattus norvegicus) (UniProt P31421)
result: > 1 mM

---

tested_target: Metabotropic glutamate receptor 2 (Rattus norvegicus) (UniProt P31421)

smiles_record: N[C@@H](C[C@H]1CC(C(=O)O)=NO1)C(=O)O
Ki: > 1000 µM
